tested on: HBeAg; test: PHH natural infection assay, HBeAg (alphalisa); assay type: cell-based, HBV; settings: Hepatitis B virus, read-out: HBeAg IC50
Below, each entry is listed with its recorded log10(IC50).
Annotation: log10 of IC50, µM basis.

Consider the worked cases shown below.
- compound: "O=C(Nc1ccc(-c2nc3cc(Cl)ccc3o2)cc1)c1ccccn1 [Example 74]"
  log10(IC50): 0.74
- compound: "CC1(C(=O)Nc2ccc(-c3nc4cccc(F)c4o3)cc2)CCC1 [Example 34]"
  log10(IC50): 0.25
- compound: "COC(=O)C12CC(C(=O)Nc3ccc(-c4nc5cccc(F)c5o4)cc3)(C1)C2 [Example 38]"
  log10(IC50): 0.60
- compound: "O=C(Nc1ccc(-c2nc3cccc(F)c3o2)cc1)C12CC(C1)C2 [Example 14]"
  log10(IC50): -0.40

Now consider the entry below.
O=C(Nc1ccc(-c2nc3cccc(F)c3o2)cc1)C1COCCO1 (centres unmarked) [Example 23] has a reported log10(IC50) of -0.28

====

system: HBeAg; test: PHH natural infection assay, HBeAg (alphalisa); format: cell-based, HBV; details: Hepatitis B virus, read-out: HBeAg IC50
measured.parameter: IC50 (nM)
Write the number in nM without appending the unit.

The following molecules have reported results that may help.
- molecule: "O=C(Nc1ccc(-c2nc3ccc(Cl)cc3o2)cc1)C1CCOC1 (stereo not drawn) [Example 8]"
  IC50 (nM): 820
- molecule: "Cc1coc(C(=O)Nc2ccc(-c3nc4ccc(F)c(F)c4o3)cc2)n1 [Example 79]"
  IC50 (nM): 1030
- molecule: "CC(C)(C)C(=O)Nc1ccc(-c2nc3cccnc3o2)cc1 [Example 61]"
  IC50 (nM): 1550

Documented IC50 of O=C(Nc1ccc(-c2nc3cccc(F)c3o2)cc1)C1CC2CCC(C1)O2 (stereo not drawn) [Example 22] : 1230

// IC50 lookup, molecule = CC(C)(C)C(=O)Nc1ccc(-c2nc3cccc(F)c3o2)cc1 [Example 19] , result: 980

For O=C(Nc1ccc(-c2nc3cccnc3o2)cc1)[C@@H]1CCS(=O)(=O)C1 (single isomer, unassigned) [Example 86-b] the molecule record lists IC50 as 1870

Lab note: O=C(Nc1ccc(-c2nc3cccc(Cl)c3o2)cc1)C1CCS(=O)(=O)C1 (stereo not drawn) [Example 85] gave IC50 of 1720

IC50 reading for O=C(Nc1ccc(-c2nc3c(F)cccc3o2)cc1)C12CC(F)(C1)C2 [Example 48] : 970

Item: Cc1coc(C(=O)Nc2ccc(-c3nc4c(F)cccc4o3)cc2)n1 [Example 43] | IC50: 1070

====

tested on: HBeAg; test: PHH natural infection assay, HBeAg (alphalisa); format: cell-based, HBV; settings: Hepatitis B virus, read-out: HBeAg IC50
measured.parameter: IC50
Form entry: enter the amount, then its unit.

Worked examples follow.
- compound: "CC(C)(C)C(=O)Nc1ccc(-c2nc3c(F)cccc3o2)cc1"
  IC50: "1170 nM"
- compound: "O=C(Nc1ccc(-c2nc3c(F)cccc3o2)cc1)c1ccccn1"
  IC50: "520 nM"

Kindly consider the entry below.
Entry CC(=O)OC1(C(=O)Nc2ccc(-c3nc4cccc(F)c4o3)cc2)CC1 — recorded IC50 = 2610 nM
